IC50 for assorted compounds
- MEASURED TARGET: PRMT5 (Homo sapiens)
- Construct: purchased Viva (custom protein)
- Sequence (O14744 whole entry): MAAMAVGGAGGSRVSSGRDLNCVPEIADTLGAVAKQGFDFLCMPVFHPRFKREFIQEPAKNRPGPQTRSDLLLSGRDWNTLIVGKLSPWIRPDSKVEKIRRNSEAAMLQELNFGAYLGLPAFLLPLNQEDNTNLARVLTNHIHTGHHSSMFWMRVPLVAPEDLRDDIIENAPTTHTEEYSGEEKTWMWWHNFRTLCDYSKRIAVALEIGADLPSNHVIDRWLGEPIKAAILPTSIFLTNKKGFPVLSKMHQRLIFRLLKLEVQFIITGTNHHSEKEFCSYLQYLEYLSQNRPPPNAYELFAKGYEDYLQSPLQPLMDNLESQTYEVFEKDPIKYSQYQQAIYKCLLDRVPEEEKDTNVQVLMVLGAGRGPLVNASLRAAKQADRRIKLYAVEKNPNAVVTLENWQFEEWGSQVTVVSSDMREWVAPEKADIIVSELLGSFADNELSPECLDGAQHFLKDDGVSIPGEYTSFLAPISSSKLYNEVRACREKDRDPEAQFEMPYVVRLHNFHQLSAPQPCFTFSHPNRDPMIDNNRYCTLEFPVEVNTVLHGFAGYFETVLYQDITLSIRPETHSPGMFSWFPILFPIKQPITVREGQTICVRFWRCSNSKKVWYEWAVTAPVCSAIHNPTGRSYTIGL
- Sequence (Q9BQA1 whole entry partner): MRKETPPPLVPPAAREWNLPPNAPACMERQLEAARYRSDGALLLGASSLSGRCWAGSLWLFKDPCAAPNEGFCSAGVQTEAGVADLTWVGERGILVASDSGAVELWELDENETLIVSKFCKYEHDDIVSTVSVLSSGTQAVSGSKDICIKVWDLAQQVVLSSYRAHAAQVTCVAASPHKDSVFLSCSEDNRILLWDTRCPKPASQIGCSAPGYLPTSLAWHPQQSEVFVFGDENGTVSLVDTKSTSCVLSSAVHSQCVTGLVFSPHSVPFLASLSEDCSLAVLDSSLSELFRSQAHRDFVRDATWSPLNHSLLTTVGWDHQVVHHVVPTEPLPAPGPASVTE
- TEST PROTOCOL: PRMT5 biochemical IC50 assay with no cofactor
- EXPERIMENTAL CONDITIONS: PRMT5, no cofactor; read-out: No Cofactor/ rel IC50
MEASUREMENT NAME: IC50

[
  {
    "COMPOUND": "COc1ncc(NC(=O)C(=O)N2C[C@@H](C)CC[C@@H]2c2ccc3sc([C@@H]4CCN(C)C4)nc3c2)cc1C(N)=O (racemic)",
    "MEASURED TARGET": "PRMT5 (Homo sapiens)",
    "RESULT": "< 0.05 µM"
  },
  {
    "COMPOUND": "CCc1cc(NC(=O)C(=O)N2C[C@@H](C)CC[C@@H]2c2ccc(N3CCN(C)CC3)cc2)cnc1N (single isomer, unassigned)",
    "MEASURED TARGET": "PRMT5 (Homo sapiens)",
    "RESULT": "< 0.05 µM"
  },
  {
    "COMPOUND": "Cc1ncc(NC(=O)C(=O)N2C[C@@H](C)CC[C@@H]2c2ccc3sc(C4CCN(C)CC4)nc3c2)cc1C(F)(F)F",
    "MEASURED TARGET": "PRMT5 (Homo sapiens)",
    "RESULT": "< 0.05 µM"
  },
  {
    "COMPOUND": "C[C@@H]1CC[C@H](c2cccnc2)N(C(=O)C(=O)Nc2cncc(C(N)=O)c2)C1 (single isomer, unassigned)",
    "MEASURED TARGET": "PRMT5 (Homo sapiens)",
    "RESULT": "> 0.5 µM"
  },
  {
    "COMPOUND": "CCc1cc(NC(=O)C(=O)N2C[C@@H](C)CC[C@@H]2c2ccc3sc(C4CC(C)(C)N(C)C(C)(C)C4)nc3c2)cnc1N",
    "MEASURED TARGET": "PRMT5 (Homo sapiens)",
    "RESULT": "< 0.05 µM"
  },
  {
    "COMPOUND": "Cc1cc(NC(=O)C(=O)N2CCCCC2c2cccc3[nH]cnc23)cnc1N (stereo not drawn)",
    "MEASURED TARGET": "PRMT5 (Homo sapiens)",
    "RESULT": "> 0.5 µM"
  }
]
